Each recorded value in this set is attributed to the OligoGym collection.

target: GAA; assay: pooled miR-30 sensor sort-seq; sequence = guide strand; details: shRNA; further: reference of the scale not given here
# sensor-assay potency score (higher = more potent) >= -0.06 gives Condition met, anything below gives Condition not met

In: Check if sensor-assay potency score (higher = more potent) >= -0.06 (inclusive). Item: TTAAACTGCAGGATTTCTGGCA
Out: Condition met

In: Check if sensor-assay potency score (higher = more potent) >= -0.06 (inclusive). Item: TTGTGCAGGTTGTAGTGTGTGG
Out: Condition not met

In: Check if sensor-assay potency score (higher = more potent) >= -0.06 (inclusive). Item: TTGAACGTGAAGTCCCTCCGGG
Out: Condition met

In: Check if sensor-assay potency score (higher = more potent) >= -0.06 (inclusive). Item: TACAATCTTATTAACACAGAGC
Out: Condition not met

In: Check if sensor-assay potency score (higher = more potent) >= -0.06 (inclusive). Item: TAAACTGCAGGATTTCTGGCAC
Out: Condition not met

In: Check if sensor-assay potency score (higher = more potent) >= -0.06 (inclusive). Item: TTGGTGTCGGGGCTGTAGGTGA
Out: Condition not met

In: Check if sensor-assay potency score (higher = more potent) >= -0.06 (inclusive). Item: TTAGCTGGATCTTTGATCGTGA
Out: Condition met

In: Check if sensor-assay potency score (higher = more potent) >= -0.06 (inclusive). Item: TTTGCAGGGATGTAGCAACAGC
Out: Condition not met

----------
target: RPS27; assay: pooled miR-30 sensor sort-seq; sequence = guide strand; conditions: shRNA
# sensor-assay potency score (higher = more potent) >= -0.5 gives yes (1), anything below gives no (0)

In: Check if sensor-assay potency score (higher = more potent) >= -0.5 (inclusive). Item: TTCCTCTTCTCCTCTTCTGGAG
Out: no (0)

In: Check if sensor-assay potency score (higher = more potent) >= -0.5 (inclusive). Item: TCCTCTTCTCCTCTTCTGGAGA
Out: no (0)

In: Check if sensor-assay potency score (higher = more potent) >= -0.5 (inclusive). Item: TAAGCCTTGCTTTTCCTCCTGT
Out: yes (1)

In: Check if sensor-assay potency score (higher = more potent) >= -0.5 (inclusive). Item: TTCACATCCATGAAGTAGGAAT
Out: no (0)

In: Check if sensor-assay potency score (higher = more potent) >= -0.5 (inclusive). Item: TTCTTCTTGTGTTTCCTCTTCT
Out: yes (1)

In: Check if sensor-assay potency score (higher = more potent) >= -0.5 (inclusive). Item: TTTTATAGCATCCTGGGCATTT
Out: no (0)

In: Check if sensor-assay potency score (higher = more potent) >= -0.5 (inclusive). Item: TGATTTTATAGCATCCTGGGCA
Out: yes (1)

----------
biological target: MYO1D; experiment: pooled miR-30 sensor sort-seq; sequence = guide strand; settings: shRNA
measurement label: sensor-assay potency score (higher = more potent)
Write the number on its own, no unit after it.

In: For the sequence TTTCTCAACCATATCTGTCTTA , what sensor-assay potency score (higher = more potent) is on record?
Out: 0.187

In: For the sequence TAGTAGAGAGCAATTCTGCTAT , what sensor-assay potency score (higher = more potent) is on record?
Out: 0.00249

In: For the sequence TTGTTCTTGCTTCAGAACCAGC , what sensor-assay potency score (higher = more potent) is on record?
Out: -1.43

In: For the sequence TTGTTCTGAACCTCCTTGGAGT , what sensor-assay potency score (higher = more potent) is on record?
Out: -0.407

In: For the sequence TTGAGCACAGGATTTGAACTGT , what sensor-assay potency score (higher = more potent) is on record?
Out: 0.338

In: For the sequence TTCAAGAAACATTTCATCGGTG , what sensor-assay potency score (higher = more potent) is on record?
Out: 0.501
